Values from PubChem BioAssay AID1490

target: 4'-phosphopantetheinyl transferase ffp (Bacillus subtilis); assay: qHTS Assay for Inhibitors of Bacillus subtilis Sfp phosphopantetheinyl transferase (PPTase); details: Biochemical Sfp PPTase activity;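 further: the enzyme is Sfp with the accession as filed and its product quenches rhodamine fluorescence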;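 on largest response in the series, negative = inhibition: 0% = enzyme reaction without inhibitor and -100% = no enzyme wells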
The campaign covered roughly 310,000 compounds. About 11,000 (3.5%) were called active. Not shown: some 4% with an inconclusive outcome. What follows is part of a selection rich in actives, with near analogues and random picks from the rest.
Result Type: largest response in the series, negative = inhibition (%)
Answers are plain numbers, in %.

Take a look at these entries with their results.
COc1ccc(C)cc1NC(=O)CNCc1cccs1
-7.78
COC(=O)[C@@H]1CC2=CC(=O)CC[C@]2(C)[C@@]23O[C@@H]2C[C@@]2(C)[C@@H](CC[C@@]24CCC(=O)O4)[C@H]13
10
CCOC(=O)N1CCN(S(=O)(=O)c2ccc(-n3cnnn3)cc2)CC1
6.31
Cc1noc(NS(=O)(=O)c2ccc(NC(=O)c3oc4ccc(F)cc4c3C)cc2)c1C
14.6

Could you now consider this next compound?
query: Specify measured largest response in the series, negative = inhibition for Cc1ccc(-c2ncc(Cl)cc2-c2ccc(S(C)(=O)=O)cc2)cn1 .
result: 13.6

###

target: 4'-phosphopantetheinyl transferase ffp (Bacillus subtilis) (UniProt Q9F4F7); assay: qHTS Assay for Inhibitors of Bacillus subtilis Sfp phosphopantetheinyl transferase (PPTase); settings: Biochemical Sfp PPTase activity; further: potency means the concentration at half of the fitted maximal effect;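 further: the enzyme is Sfp with the accession as filed and its product quenches rhodamine fluorescence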
Hit rate of the full screen: of about 310,000 compounds, about 11,000 (3.5%) were called active. Roughly 4% stayed inconclusive and do not appear here. The full list was thinned out, with actives kept by preference.
Give Potency for every item shown.

COc1cccc(/C(C)=N/Nc2ncc(Cl)cc2Cl)c1
56.2 µM (active)

// each listed compound needs a value for Potency
1. Nn1c(SCC(=O)Nc2nccs2)nncc1=O
2. c1ccc(-c2nc(NCc3ccco3)c3ccccc3n2)cc1
3. O=C(CN1CCN(c2ccc(O)cc2)CC1)NC1CCCc2ccccc21 (stereo not drawn)
4. Oc1cc(O)c2c(c1)OC(c1ccc(O)c(O)c1)C(O)C2 (stereo not drawn)
5. COc1ccc(-c2cc3nc(C)c(CCC(=O)NC(C)CCc4ccco4)c(C)n3n2)c(OC)c1 (stereo not drawn)

result:
1. 22.4 µM (active)
2. 11.2 µM (active)
3. 17.8 µM (active)
4. 44.7 µM (active)
5. 79.4 µM (active)

Please report Potency for every entry that follows.
1. CCCOC(=O)Nc1sc2c(c1C(=O)OCC)CCC2
2. O=C(NCc1ccco1)c1cccn2c(=O)c3c4c(sc3nc12)CCCC4
3. O=C(CN1CCN(Cc2ccccc2)CC1)Nc1ccc(F)c(F)c1

result:
1: 14.1 µM (active); 2: 44.7 µM (active); 3: 56.2 µM (active)

Look up Potency for the entries below, preserving their order.
1. Cc1csc(NC(=O)CN2CCCCCC2)n1
2. Fc1ccc(COc2cccc(-c3n[nH]c(=S)o3)c2)cc1

result:
1. 79.4 µM (active)
2. 39.8 µM (active)

###

molecular target: 4'-phosphopantetheinyl transferase ffp (Bacillus subtilis) (UniProt Q9F4F7); assay: qHTS Assay for Inhibitors of Bacillus subtilis Sfp phosphopantetheinyl transferase (PPTase); conditions: Biochemical Sfp PPTase activity;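 further: the enzyme is Sfp with the accession as filed and its product quenches rhodamine fluorescence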;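 on largest response in the series, negative = inhibition: 0% = enzyme reaction without inhibitor and -100% = no enzyme wells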
The campaign covered roughly 310,000 compounds. About 11,000 (3.5%) were called active. Roughly 4% stayed inconclusive and do not appear here. Many of the other results were omitted from the sample, so actives are more common in it than they were.
Give largest response in the series, negative = inhibition for every item shown.
One number for each entry, in %.

I have 4 molecules here; please give me largest response in the series, negative = inhibition for each one.
1. O=C(CN1CCCCCC1)Nc1c(Cl)cc(Cl)cc1Cl
2. CCOc1ccc2[nH]c(=O)c(C(c3nnnn3CCOC)N3CCOCC3)cc2c1 (configuration not stated)
3. O=C(N=C1SC2CS(=O)(=O)CC2N1c1cc(Cl)ccc1Cl)C1CC1 (configuration not stated)
4. CC(C)CCN(C(=O)c1csnn1)C(C(=O)NC1CCCC1)c1ccccc1 (configuration not stated)

result:
1. 6.16
2. 17.1
3. 8.66
4. 13.6

Quick request: largest response in the series, negative = inhibition for each listed item, please.
1. O=C(CN1C(=O)c2ccccc2S1(=O)=O)NC1CCCCC1
2. CNc1ccc(NC(C)=O)cc1[N+](=O)[O-]
3. CCCn1nc(NC(=O)C(C)C)c2cc3cc(OC)ccc3nc21
4. CCCCc1nnc(NC(=O)CS(=O)(=O)Cc2ccccc2)s1

result:
[15.6, 18.8, 4.66, 8.57]

Answer for every listed entry: what is its largest response in the series, negative = inhibition? The entries follow.
1. CCc1nnc(NC(=O)/C=C/c2ccc(C)o2)s1
2. FC(F)(F)c1nnc2c3ccccc3c(Cl)nn12
3. COCCn1c(SCC(=O)N2CCCCCC2)nc2c(c1=O)SCC2

result:
1.89
10.4
4.45

query: Identify measured largest response in the series, negative = inhibition associated with O=C(N/N=C/c1ccoc1)c1ccc(Cl)cc1Cl
result: 5.37
